# procedureText: Inhibition of microtubule assembly
readoutType: EC50 (nM)
Report the value in nM with no unit label.

// EC50 value for C/C(=C\c1csc(C)n1)[C@@H]1C/C=C\CCC[C@H](COCc2ccccc2)C(O)[C@@H](C)C(=O)C(C)(C)C(O)CC(=O)O1 (stereo partly specified) : 2500
